Consider the following variants; for each one, report its self-cleavage.
B1: HDV Ribozyme (parent)
chain: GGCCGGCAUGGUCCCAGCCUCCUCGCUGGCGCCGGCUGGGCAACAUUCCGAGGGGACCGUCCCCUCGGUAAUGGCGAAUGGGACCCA

Variants of: B1
TEST_DETAILS: self-cleavage, relative activity (ratio to wild type); higher = more cleavage; co-transcriptional
Numbers only.

Record A16C C24G , field self-cleavage: 0.0692

What the record says about G2C U37C : self-cleavage is 0.17

Per the record, A42C A87C has self-cleavage of 0.367

Input C24G C32G . Output self-cleavage: 0.0504

Could you report self-cleavage for every entry in the following list?
1. U72A A78U
2. G67U G80A

Response:
1: 0.161; 2: 0.355

Go through the list and state self-cleavage for each entry.
1. C21A G68A
2. G17C C36A
3. U20C G67C

Response:
[0.0779, 0.0361, 0.405]
